system: SMN2 Splicing D7 (SMN Δ7 transcript); experiment: SMN Quantitative Splicing Assay (qPCR); format: cell-based, human; conditions: Homo sapiens, Fibroblast, 24 h, SMA patient fibroblasts (GM03813), 2.5 µM to 0.6 nM
pIC50: −log10 of the molar value.
Item-by-item account of pIC50

For orientation, consider the following solved cases.
Reported pIC50 ( CN(c1cnc(-c2cc3occc(=O)c3cc2O)nn1)[C@@H]1C[C@@]2(C)CC[C@](C)(N2)[C@@H]1F ) = 7.30 to 7.80

Reported pIC50 ( CN(c1cnc(-c2cc3cnn(C)c(=O)c3cc2O)nn1)[C@@H]1C[C@@]2(C)CC[C@H](N2)[C@@H]1F ) = 7.30 to 7.80

Kindly review the next molecule as well.
Reported pIC50 ( Cc1coc2cc(-c3ncc(N(C)[C@@H]4CC5CCCC(N5)[C@@H]4F)nn3)c(O)cc2c1=O (stereo partly drawn) ) = 7.82 to 11.00
